experiment: Acute animal toxicity / survival after injection; settings: mouse, in vivo, ip, 15 mg/kg
Structures can show the parent of a compound that is named as a salt.
Reported metric: mortality (%)
One number for each entry, in %.

Query: Looking for the measured mortality of COc1cccc2c1C(=O)c1c(O)c3c(c(O)c1C2=O)C[C@@](O)(C(=O)CO)C[C@@H]3O[C@H]1C[C@H](N)[C@H](O)[C@H](C)O1 [Free ADM, doxorubicin-HCl] , can you help?
Response: 75

----------
assay: Acute animal toxicity / survival after injection; conditions: mouse, in vivo, 15 mg/kg
Structures can show the parent of a compound that is named as a salt.
Reported metric: survival (%)
Answers are plain numbers, in %.

Query: survival; subject: COc1cccc2c1C(=O)c1c(O)c3c(c(O)c1C2=O)C[C@@](O)(C(=O)CO)C[C@@H]3O[C@H]1C[C@H](N)[C@H](O)[C@H](C)O1 [Free ADM, doxorubicin-HCl]
Response: 100
